- Test system: Ct(FpH)MiniIII (chimera)
- Experiment: filter binding
- Condition Info: Enzyme-specific cleavage buffer (Table S1, mostly not in material) with MgCl2 replaced by 1 mM CaCl2; 1.5 nM 33P-dsRNA, 50 ul, 1 h at room temperature …
pKd: −log10 of the molar value.
Measured Parameter: pKd

>>> assay_value("CCUGUCCCCCGCCGAAGUCGCUGCAAUU / AAUUGCAGCGACUUCGGCGGGGGACAGG [NEG]")
5.71
>>> assay_value("GCUGGGAGGGAAACCUCUCUCUCUGGCC / GGCCAGAGAGAGAGGUUUCCCUCCCAGC [POS-ACCU]")
5.58

Where do the numbers come from? From paper PMC5141509.
